tested on: NCI-H226 lung; assay: NCI-60 one-dose screen, 48 h; conditions: 10 µM
Compounds without any hit were thinned out: in the full panel of roughly 83,000, 20% have a hit. Active and inactive are the calls of the source. Rule for the calls: active = growth percent below 10; inactive = the rest.
# output must be one of active, inactive

* COc1ccc2[nH]c(O)c(N=NC(=O)c3cc(-c4ccc(C)cc4)nc4ccccc34)c2c1 | inactive
* Cc1cccc(-c2nc(Nc3ccccc3C(=O)O)c3ccccc3n2)c1 | inactive
* COc1ccc(C2NC(=S)NC(C)=C2C(=O)OC(C)C)cc1OC (stereo not drawn) | inactive
* O=c1[nH]c2ccccc2cc1CSc1ccc(Nc2nccc(-c3ccc4c(c3)OCO4)n2)cc1 | inactive

Test call, this compound: O=C1Nc2cc(Cl)ccc2/C1=C/c1cccc(OCc2ccccc2)c1
inactive

And COc1ccc2[nH]c(O)c(N=NC(=O)COc3ccc(NC(=O)Nc4ccc(Cl)c(Cl)c4)cc3)c2c1 ?
active

Same question, CN(CCO)c1oc(-c2ccccc2)nc1[P+](c1ccccc1)(c1ccccc1)c1ccccc1 this time
active

Subsequent entry: CC(=O)Nc1ccc(-n2cnc3cc(-c4ccc(NS(C)(=O)=O)cc4)ccc32)cc1
active

How about O=C(c1ccc(O)cc1)C1[C@H](c2ccccc2Br)[C@@H](c2ccccc2)NC12C(=O)Nc1ccc(Br)cc12 (stereo partly drawn) ?
inactive
